biological target: Muscarinic acetylcholine receptor M1 (Homo sapiens, UniProt P11229); test: Binding affinity of compound labeled by [3H]QNB in CHO cells selectively expressing human Muscarinic acetylcholine receptor M1; format: cell-based
Assay Readout: IC50 (nM)
Use nM as the unit, but write only the number.

Prompt: Any idea what IC50 was measured for CC(C)=CCO/N=C1\CN2CCC1C2 (stereo unspecified) ?
Completion: 216

###

Molecular target: Muscarinic acetylcholine receptor M1 (Homo sapiens)
Sequence (whole entry): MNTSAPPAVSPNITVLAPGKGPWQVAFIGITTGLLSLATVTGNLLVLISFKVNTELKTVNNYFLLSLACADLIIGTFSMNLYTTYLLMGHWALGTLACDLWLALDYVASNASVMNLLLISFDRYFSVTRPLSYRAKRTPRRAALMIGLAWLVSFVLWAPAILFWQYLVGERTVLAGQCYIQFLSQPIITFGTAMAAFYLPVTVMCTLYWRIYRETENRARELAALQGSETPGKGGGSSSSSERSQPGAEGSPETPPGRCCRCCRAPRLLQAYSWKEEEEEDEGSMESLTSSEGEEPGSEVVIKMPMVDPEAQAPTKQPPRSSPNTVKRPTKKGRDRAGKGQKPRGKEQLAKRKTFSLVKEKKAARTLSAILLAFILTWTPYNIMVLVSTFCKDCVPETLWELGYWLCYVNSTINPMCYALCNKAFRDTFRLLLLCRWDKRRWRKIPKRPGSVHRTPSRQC
Test: Stimulation of inositol phosphate(PI) accumulation in CHO cells expressing Muscarinic acetylcholine receptor M1 as maximal response at 100 uM relative to carbachol
Type: functional, cell-based
Below, each entry is listed with its recorded CCh.
Use % as the unit, but write only the number.

Use these answered entries as a reference point.
Compound	Unit Name	CCh
COc1ccc(C#CCO/N=C2\CN3CCC2C3)cc1 (stereo not given)	%	89
C#CCO/N=C1\CN2CCC1C2 (stereo not given)	%	95
Fc1cccc(C#CCO/N=C2\CN3CCC2C3)c1 (stereo not given)	%	54

Prompt: Provide value of CCh for this record tested with Muscarinic acetylcholine receptor M1 (Homo sapiens): Fc1ccccc1C#CCO/N=C1\CN2CCC1C2 (stereo not given)
Completion: 45

Prompt: Provide value of CCh for this record tested with Muscarinic acetylcholine receptor M1 (Homo sapiens): C(#Cc1ccsc1)CO/N=C1\CN2CCC1C2 (stereo not given)
Completion: 54

Prompt: Provide value of CCh for this record tested with Muscarinic acetylcholine receptor M1 (Homo sapiens): COc1cccc(C#CCO/N=C2\CN3CCC2C3)c1 (stereo not given)
Completion: 82

Prompt: Provide value of CCh for this record tested with Muscarinic acetylcholine receptor M1 (Homo sapiens): Clc1ccc(C#CCO/N=C2\CN3CCC2C3)cc1 (stereo not given)
Completion: 48

Prompt: Provide value of CCh for this record tested with Muscarinic acetylcholine receptor M1 (Homo sapiens): C(#Cc1cccs1)CO/N=C1\CN2CCC1C2 (stereo not given)
Completion: 86

Prompt: Provide value of CCh for this record tested with Muscarinic acetylcholine receptor M1 (Homo sapiens): Fc1ccc(C#CCO/N=C2\CN3CCC2C3)cc1 (stereo not given)
Completion: 57

Prompt: Provide value of CCh for this record tested with Muscarinic acetylcholine receptor M1 (Homo sapiens): Clc1ccccc1C#CCO/N=C1\CN2CCC1C2 (stereo not given)
Completion: 32

Hey, just so you know, these numbers are from ChEMBL document CHEMBL1131286.
